target: human EGFR (WT) (Homo sapiens, UniProt P00533); construct: purchased Carna Biosciences Inc., Japan; assay: Inhibitory activity against EGFR (WT) kinase; format: biochemical; conditions: Test Example 1, Table 6; ATP 1.5 μM
Sequence (P00533 25-1210): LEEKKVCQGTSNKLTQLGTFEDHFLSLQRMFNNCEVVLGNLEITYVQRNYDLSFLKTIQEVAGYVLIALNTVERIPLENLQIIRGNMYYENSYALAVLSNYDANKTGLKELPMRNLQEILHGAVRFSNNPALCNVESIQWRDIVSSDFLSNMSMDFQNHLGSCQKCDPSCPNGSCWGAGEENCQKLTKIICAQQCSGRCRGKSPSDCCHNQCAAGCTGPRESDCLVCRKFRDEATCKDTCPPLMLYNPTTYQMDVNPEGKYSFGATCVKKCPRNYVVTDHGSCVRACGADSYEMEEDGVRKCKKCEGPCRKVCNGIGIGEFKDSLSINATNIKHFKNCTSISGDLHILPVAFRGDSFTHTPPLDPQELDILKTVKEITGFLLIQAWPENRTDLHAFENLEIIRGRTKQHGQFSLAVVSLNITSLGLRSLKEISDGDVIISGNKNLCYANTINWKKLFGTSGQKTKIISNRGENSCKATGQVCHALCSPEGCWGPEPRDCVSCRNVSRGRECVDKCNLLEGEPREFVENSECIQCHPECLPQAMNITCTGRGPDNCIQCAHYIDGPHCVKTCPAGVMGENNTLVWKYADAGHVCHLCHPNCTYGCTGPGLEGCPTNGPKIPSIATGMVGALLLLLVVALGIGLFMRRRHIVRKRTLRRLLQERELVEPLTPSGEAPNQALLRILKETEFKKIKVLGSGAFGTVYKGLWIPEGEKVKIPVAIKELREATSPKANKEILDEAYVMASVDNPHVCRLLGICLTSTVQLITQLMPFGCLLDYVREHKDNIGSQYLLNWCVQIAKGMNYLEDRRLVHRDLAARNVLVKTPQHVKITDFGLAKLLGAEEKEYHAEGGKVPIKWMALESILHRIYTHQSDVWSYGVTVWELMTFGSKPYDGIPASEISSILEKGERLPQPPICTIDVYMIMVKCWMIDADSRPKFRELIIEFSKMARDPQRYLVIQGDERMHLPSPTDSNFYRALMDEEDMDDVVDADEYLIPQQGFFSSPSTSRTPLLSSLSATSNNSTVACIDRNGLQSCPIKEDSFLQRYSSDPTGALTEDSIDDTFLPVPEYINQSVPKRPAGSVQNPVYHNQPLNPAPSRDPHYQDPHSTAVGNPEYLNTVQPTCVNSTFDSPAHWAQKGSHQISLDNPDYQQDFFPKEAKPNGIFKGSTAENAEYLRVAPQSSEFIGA
Observation Type: IC50 (nM)

C#Cc1c(-c2cnc3ccccc3c2)c2c(N)ncnc2n1[C@@H]1CCN(C(=O)C=C)C1 [Comparative Example B, reference compound]	0.95

[1] C#Cc1c(-c2cnc3ccccc3c2)c2c(N)ncnc2n1C12CCC(NC(=O)c3ccno3)(CC1)C2 [Example 44]
[2] C#Cc1c(-c2cnc3ccccc3c2)c2c(N)ncnc2n1C12CCC(NC(=O)c3cncn(C)c3=O)(CC1)C2 [Example 25]
[3] C#Cc1c(-c2cnc3ccccc3c2)c2c(N)ncnc2n1C12CCC(NC(=O)c3cncc(F)c3)(CC1)C2 [Example 35]
Place the items in sequence of falling IC50. Quick reminder: the answer is the labels in the order asked.
3, 1, 2

All values here come from patent US11786534B2.
